Quick list: HEK-IL-13 [nM] (IC50, STAT6 reporter) per entry.
- Measurement target: recombinant human IL-13 (human, UniProt P35225 35-146)
- Sequence (P35225 35-146 limits assumed): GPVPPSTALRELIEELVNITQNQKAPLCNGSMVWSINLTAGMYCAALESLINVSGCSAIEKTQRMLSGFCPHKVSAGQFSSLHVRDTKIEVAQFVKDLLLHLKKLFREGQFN
- Method notes: cell-based or functional assay
Use nM as the unit, but write only the number.

Use the examples below as a reference point.
BDG38.092 (antibody, V domains shown, IgG1) VH: QMQLVESGGGVVQPGRSLTLSCAASGFEFRTYGMHWVRQAPGKGLEWLAVIWDDGSNTHYADSVKGRFTITRDNSKNTLNLQMNSLRVEDTAVYYCVRAPQWYLTAEAFDLWGQGTMVTVSS VL: SYVLTQPPSVSVAPGETATITCGGNLIGARLVHWYQQKPGQAPVLVIYDDSDRPSRIPERFSGSNIGNTATLTISDVEEGDEADYYCQVWDYYSDHMVFGGGTKLTVL ... 0.12
BDG38.140 (antibody, V domains shown, IgG1) VH: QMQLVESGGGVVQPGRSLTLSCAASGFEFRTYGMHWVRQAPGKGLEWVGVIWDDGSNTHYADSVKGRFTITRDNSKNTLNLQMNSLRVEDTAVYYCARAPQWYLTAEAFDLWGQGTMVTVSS VL: SYILTQPPSVSVAPGETATITCGGNLIGAKLVHWYQQKPGQAPVLVIYDDSDRPSRIPERFSGSNIGNTATLTIEDVEAGDEADYYCQVWDYSANHMVFGGGTKLTVL ... 0.043

Consider the additional binder presented here.
Input line: Identify HEK-IL-13 [nM] (IC50, STAT6 reporter) associated with the binder BDG38.127 (antibody, V domains shown, IgG1) VH: QMQLVESGGGVVQPGRSLTLSCAASGFEFRTYGMHWVRQAPGKGLEWVGVIWYDGSATHYADSVKGRFTITRDNSKNTLNLQMNSLRAEDTAVYYCARAPQWYLTAEAFDLWGQGTMVTVSS VL: SYILTQPPSVSVAPGETATITCGGNLIGAKLVHWYQQKPGQAPVLVIYDDSDRPSRIPERFSGSNIGNTATLTISDVEAGDEADYYCQVWDYYSDTYVFGGGTKLTVL
Output line: 0.044
